Numbers sourced from patent US20260373248A1.

# Test system: luciferase
# testDescription: Luciferase expression after local (intramuscular or subcutaneous) administration of mRNA
# Type: in vivo
# assayContext: subcutaneous, mRNA 0.01 mpk, 6 hours
Starred links: 1 amine or outer side, 2 acyl side, 3 side chain; linkers in the order of their positions; H or OH if unused. Non-standard residues stand in square brackets, D forms with d. Residues, ends and D or L forms follow the SMILES beside them. *: point of attachment. Gly(N-(3-decanoyloxypropyl)) = CCCCCCCCCC(=O)OCCCNCC(=O)O; N(3-lauroyloxypropyl)Gly = CCCCCCCCCCCC(=O)OCCCNCC(=O)O; Gly(N-(CH2)3O-octanoyl) = CCCCCCCC(=O)OCCCNCC(=O)O; N(3-imidazol-1-ylpropyl)Gly = O=C(O)CNCCCn1ccnc1; Gly(N-3-morpholinopropyl) = O=C(O)CNCCCN1CCOCC1; N(2-ethylhexyl)Gly = CCCCC(CC)CNCC(=O)O; X1 = CCCCC(CC)CSSCCN(CC(=O)[*:2])[*:1]; X2 = CCCCCCC(CCCC)CN(CC(=O)[*:2])[*:1]; N(CH(CH2OH)2)Gly = O=C(O)CNC(CO)CO; NDecylGly = CCCCCCCCCCNCC(=O)O; For = O=C*
propertyName: SC Flux (p/s)
Answers are plain numbers, in p/s.

// query Write SC Flux of CCCCCCCC(=O)OCCCN(CC(=O)N(CC(=O)N(CC(=O)N(CCCOC(=O)CCCCCCC)CC(=O)N(CC(N)=O)CC(CC)CCCC)CC(CC)CCCC)CC(CC)CCCC)C(=O)CN(CC(CC)CCCC)C(=O)CNC(CO)CO (stereo not shown) [Compound 4] (H-[N(CH(CH2OH)2)Gly][N(2-ethylhexyl)Gly][Gly(N-(CH2)3O-octanoyl)][N(2-ethylhexyl)Gly][N(2-ethylhexyl)Gly][Gly(N-(CH2)3O-octanoyl)][N(2-ethylhexyl)Gly]-NH2) ; system used: luciferase
// result 5.11E+08

// for each compound in input: emit SC Flux
1. CCCCCCCC(=O)OCCCN(CC(=O)N(CC(=O)N(CC(=O)N(CCCOC(=O)CCCCCCC)CC(=O)N(CC(N)=O)CC(CCCC)CCCCCC)CC(CC)CCCC)CC(CCCC)CCCCCC)C(=O)CN(CC(CC)CCCC)C(=O)CNC(CO)CO (stereo not shown) [Compound 104] (H-[N(CH(CH2OH)2)Gly][N(2-ethylhexyl)Gly][Gly(N-(CH2)3O-octanoyl)][X2][N(2-ethylhexyl)Gly][Gly(N-(CH2)3O-octanoyl)][X2]-NH2)
2. CCCCCCCCCCN(CC(=O)N(CCSSCC(CC)CCCC)CC(=O)N(CCCOC(=O)CCCCCCC)CC(N)=O)C(=O)CN(CCSSCC(CC)CCCC)C(=O)CN(CCCOC(=O)CCCCCCC)C(=O)CN(CC(CC)CCCC)C(=O)CNC(CO)CO (stereo not shown) [Compound 130] (H-[N(CH(CH2OH)2)Gly][N(2-ethylhexyl)Gly][Gly(N-(CH2)3O-octanoyl)][X1][NDecylGly][X1][Gly(N-(CH2)3O-octanoyl)]-NH2)
3. CCCCCCCC(=O)OCCCN(C=O)CC(=O)N(CCCOC(=O)CCCCCCC)CC(=O)N(CCc1ccccc1)CC(=O)N(CC(=O)N(CCCN1CCOCC1)CC(=O)N(CCCOC(=O)CCCCCCC)CC(=O)N(CCc1ccccc1)CC(=O)N(CCCOC(=O)CCCCCCC)CC(=O)N(CC(N)=O)CC(CC)CCCC)CC(CC)CCCC (stereo not shown)
4. CCCCCCCCCC(=O)OCCCN(CC(=O)N(CC(=O)N(CC(=O)N(CCCOC(=O)CCCCCCCCC)CC(=O)N(CC(N)=O)CC(CC)CCCC)CC(CC)CCCC)CC(CC)CCCC)C(=O)CN(CC(CC)CCCC)C(=O)CNC(CO)CO (stereo not shown) [Compound 5] (H-[N(CH(CH2OH)2)Gly][N(2-ethylhexyl)Gly][Gly(N-(3-decanoyloxypropyl))][N(2-ethylhexyl)Gly][N(2-ethylhexyl)Gly][Gly(N-(3-decanoyloxypropyl))][N(2-ethylhexyl)Gly]-NH2)
5. CCCCCCCCCCCC(=O)OCCCN(CC(=O)N(CC(=O)N(CCCN1CCOCC1)CC(=O)N(CC(=O)N(CCCOC(=O)CCCCCCCCCCC)CC(=O)N(CC(N)=O)CC(CC)CCCC)CC(CC)CCCC)CC(CC)CCCC)C(=O)CN(C=O)CC(CC)CCCC (stereo not shown) [Compound 80] (For-[N(2-ethylhexyl)Gly][N(3-lauroyloxypropyl)Gly][N(2-ethylhexyl)Gly][Gly(N-3-morpholinopropyl)][N(2-ethylhexyl)Gly][N(3-lauroyloxypropyl)Gly][N(2-ethylhexyl)Gly]-NH2)

// result
["1.93E+08", "1.92E+08", "8.55E+07", "1.71E+08", "4.16E+08"]

// query Write SC Flux of CCCCCCCCCCN(C=O)CC(=O)N(CCCOC(=O)CCCCCCC)CC(=O)N(CC(=O)N(CCCn1ccnc1)CC(=O)N(CC(=O)N(CCCOC(=O)CCCCCCC)CC(=O)N(CCCCCCCCCC)CC(N)=O)CC(CC)CCCC)CC(CC)CCCC (stereo not shown) [Compound 114] (For-[NDecylGly][Gly(N-(CH2)3O-octanoyl)][N(2-ethylhexyl)Gly][N(3-imidazol-1-ylpropyl)Gly][N(2-ethylhexyl)Gly][Gly(N-(CH2)3O-octanoyl)][NDecylGly]-NH2) ; system used: luciferase
// result 1.03E+08
